// data source = ChEMBL document CHEMBL5500396

A collection of compounds and their measured hepatocyte CLint at 1.5 h, 1 µM
# experimentSummary: in vitro
# conditionNotes: human, hepatocytes
# Description: Metabolic stability in human hepatocytes assessed as clearance measured per 10^6 cells at 1 uM incubated for 90 mins by LC-MS/MS analysis

{"columns": ["compound", "hepatocyte CLint at 1.5 h, 1 µM [µL/min/1e6 cells]"],
 "data": [
  ["O=C(c1ccc(OCc2ccc(CNC[C@H](O)c3ccc(O)c4[nH]c(=O)ccc34)cc2)cc1)N1CCC(C(=O)OC2CN3CCC2CC3)(c2ccccc2)CC1 (single isomer, unassigned)", 15],
  ["O=C(c1ccc(CCNC[C@H](O)c2ccc(O)c3[nH]c(=O)ccc23)cc1)N1CCC(c2cccc([C@](O)(C(=O)OCC3CCN(Cc4ccccc4)CC3)c3ccccc3)c2)CC1", 13],
  ["CN1CCC(COC(=O)[C@@](O)(c2ccccc2)c2cccc(-c3ccc(CNC(=O)c4ccc(CNC[C@H](O)c5ccc(O)c6[nH]c(=O)ccc56)cc4)s3)c2)CC1", 3],
  ["COc1cc(C(=O)NCCCOc2cccc([C@](O)(C(=O)OCC3CCN(Cc4ccccc4)CC3)c3ccccc3)c2)c(F)cc1CNC[C@H](O)c1ccc(O)c2[nH]c(=O)ccc12", 20],
  ["COc1cc(C(=O)NCCCOc2cccc([C@](O)(C(=O)O[C@@H]3CCCN(C)C3)c3ccccc3)c2)c(F)cc1CNC[C@H](O)c1ccc(O)c2[nH]c(=O)ccc12", 7],
  ["O=C(NCCCOc1cccc([C@](O)(C(=O)OCC2CCN(C3CCC3)CC2)c2ccccc2)c1)c1ccc(CNC[C@H](O)c2ccc(O)c3[nH]c(=O)ccc23)cc1", 6]
]}
